tested_on: CDK6/Cyclin D3 (Homo sapiens (Human), UniProt Q00534)
Sequence (Q00534 whole entry): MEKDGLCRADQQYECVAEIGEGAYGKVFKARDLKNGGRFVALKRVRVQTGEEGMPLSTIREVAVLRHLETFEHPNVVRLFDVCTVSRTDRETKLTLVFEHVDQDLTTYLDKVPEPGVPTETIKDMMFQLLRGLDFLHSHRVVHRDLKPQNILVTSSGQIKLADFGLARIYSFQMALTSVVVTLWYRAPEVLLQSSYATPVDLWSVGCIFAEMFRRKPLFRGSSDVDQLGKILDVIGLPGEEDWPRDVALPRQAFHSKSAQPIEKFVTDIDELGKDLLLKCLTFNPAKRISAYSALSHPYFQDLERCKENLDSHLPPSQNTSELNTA
Sequence (P30281 whole entry partner): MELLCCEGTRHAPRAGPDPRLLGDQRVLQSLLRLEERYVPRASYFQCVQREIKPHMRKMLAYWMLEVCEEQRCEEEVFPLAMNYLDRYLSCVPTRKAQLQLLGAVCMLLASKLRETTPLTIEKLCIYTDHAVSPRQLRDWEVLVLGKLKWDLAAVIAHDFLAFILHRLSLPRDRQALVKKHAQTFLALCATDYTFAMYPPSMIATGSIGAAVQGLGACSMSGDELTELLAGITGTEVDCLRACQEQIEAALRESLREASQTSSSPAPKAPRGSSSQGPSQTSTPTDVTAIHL
assay_details: CDK6/Cyclin D3 mobility shift assay
test_context: activated CDK6/Cyclin D3, 3.5 mM ATP, Morrison fit; read-out: CDK6_D3 Ki
pKi: −log10 of the molar value.
Label y when pKi is at or above 8; otherwise label n.

These recorded examples may help you get a feel for the data.
>>> df
                                   molecule                                 tested_on  class_name
0  CC1OCC(C)n2c1nc1c(F)cc(-c3nc(N[C@@H]4CCOC[C@H]4O)ncc3Cl)cc12 (single isomer, unassigned) [Example A20]  CDK6/Cyclin D3 (Homo sapiens (Human), UniProt Q00534)           n
1  CC(O)c1nc2c(F)cc(-c3nc(N[C@@H]4CCOC[C@H]4O)ncc3Cl)cc2n1C(C)C(F)F (single isomer, unassigned)  CDK6/Cyclin D3 (Homo sapiens (Human), UniProt Q00534)           y

Determine whether this molecule has pKi no lower than 8: `CNC(=O)c1nc2c(F)cc(-c3nc(N[C@@H]4CCOC[C@H]4O)ncc3Cl)cc2n1C(C)C`
n

Determine whether this molecule has pKi no lower than 8: CC1OCC(C)n2c1nc1c(F)cc(-c3nc(N[C@@H]4CCOC[C@H]4O)ncc3Cl)cc12 (single isomer, unassigned) [Example A21]
n

Determine whether this molecule has pKi no lower than 8: `CC(C)n1c(C(C)(C)N)nc2c(F)cc(-c3nc(N[C@@H]4CCOC[C@H]4O)ncc3Cl)cc21`
n
